Values compiled from patent US20220119529A1.

- Tgt: T1, Mouse B7H3 (plate-coated protein, ELISA) (mouse, UniProt Q8VE98 29-248, limits assumed)
- T1 sequence (looked up): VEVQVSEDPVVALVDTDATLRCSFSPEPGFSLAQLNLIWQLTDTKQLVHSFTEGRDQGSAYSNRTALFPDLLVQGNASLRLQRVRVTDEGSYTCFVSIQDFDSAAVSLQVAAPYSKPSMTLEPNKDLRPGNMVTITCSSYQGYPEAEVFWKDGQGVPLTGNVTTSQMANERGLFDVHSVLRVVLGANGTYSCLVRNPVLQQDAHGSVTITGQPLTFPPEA
- Test Method Notes: ELISA, antigen coated on plate, anti-human IgG-HRP
pEC50: −log10 of the molar value.

Binder: #23-5424 (VH5-4-VL2-4) (antibody, IgG1, V domains shown, Humanized antibody from murine #23; also called #23-VH5-4/VL2-4) VH: QVQLVQSGAEVKKPGESLKISCKASGYNFNNYWMHWVRQRPGKGLEWIGMIHPNSGTFNYNERFKRKATLTVDKSISTAYLQWSSLKAEDTAMYYCAKSTALATDYWGQGTLVTVSS VL: QIVLTQSPSTLSASVGDRVTMTCSASSSVSYMYWYQQKPGKAPKLLIYDTSNLASGVPIRFSGSGSGTSYTLTISSMQPDDFVTYYCQQWSSYPLTFGQGTKLEIK
pEC50: 8.31

Binder: #27-21 (VH2-2-VL2-1) (antibody, V domains shown, Humanized antibody from murine #27; Detected with anti-human IgG and captured through Fc; also called #27-VH2-2/VL2-1) VH: QVQLVQSGAEVVKPGASVKVSCKASGYTFTNYWMHWVKQAPGQGLEWIGMIHPNSGAFNYNERFKTRVTITVDKSTSTAYMELSSLRSEDTAVYYCARSTALATGYWGQGTLLTVSS VL: DIQLTQSPSFLSASVGDRVTITCSASSSVSYMYWYQQKPGKSPKLLIYDTSNLASGVPSRFSGSGSGTEYTLTISSLQPEDFATYYCQQWSSYPLTFGQGTKLEIK
pEC50: 9.23

Binder: #27-22 (VH2-2-VL2-2) (antibody, IgG1, V domains shown, Humanized antibody from murine #27; also called #27-VH2-2/VL2-2) VH: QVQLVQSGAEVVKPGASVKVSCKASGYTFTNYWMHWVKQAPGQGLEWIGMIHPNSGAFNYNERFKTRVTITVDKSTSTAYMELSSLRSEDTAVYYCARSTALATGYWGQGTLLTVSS VL: DIQLTQSPSFLSASVGDRVTMTCSASSSVSYMYWYQQKPGKSPKLLIYDTSNLASGVPSRFSGSGSGTEYTLTISSLQPEDFVTYYCQQWSSYPLTFGQGTKLEIK
pEC50: 9.47

Binder: #27-2121 (VH2-1-VL2-1) (antibody, IgG1, V domains shown, Humanized antibody from murine #27; also called #27-VH2-1/VL2-1) VH: QVQLVQSGAEVVKPGASVKVSCKASGYTFTNYWMHWVRQAPGQGLEWMGMIHPNSGAFNYNERFKTRVTITVDKSTSTAYMELSSLRSEDTAVYYCARSTALATGYWGQGTLVTVSS VL: DIQLTQSPSFLSASVGDRVTITCSASSSVSYMYWYQQKPGKSPKLLIYDTSNLASGVPSRFSGSGSGTEYTLTISSLQPEDFATYYCQQWSSYPLTFGQGTKLEIK
pEC50: 9.34
